Test system: Nanoluciferase (engineered Oplophorus gracilirostris luciferase)
protocol text: Primary Nanoluciferase (NLuc) qHTS assay for identification of artifact compounds. (AID 1845222);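 also: NLuc secreted into diluted conditioned medium of S16 cells; 0% = DMSO and -100% = no enzyme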
measurement setup: NLuc-conditioned medium, Nano-Glo luminescence, 5 min; series mostly up to 54.1 µM
Activity calls are given as the source filed them. Calls follow the shape of the dose curve; as a rule, active = well fitted inhibition curve with a large enough effect; inconclusive = small, poorly fitted or top-dose-only effect; inactive = flat fitted curve, though single readings scatter.
metric name: activity, negative = inhibition

// known answers, use as guide
molecule="COc1cc(C2Oc3c(O)cc(CCCO)cc3C2CO)ccc1O[C@H]1O[C@H](C)[C@@H](O)[C@H](O)[C@@H]1O (stereo not given in full)" recorded_measurement=inactive
molecule=CN(NC(=O)CC(=O)NN(C)C(=S)c1ccccc1)C(=S)c1ccccc1 recorded_measurement=inactive
molecule="COc1cc(CC(COC2OC(CO)C(O)C(O)C2O)c2cc(/C=C/CO)cc(OC)c2O)ccc1O (stereo not given)" recorded_measurement=inactive
molecule="OCC1OC(Oc2cc(O)c3c(c2)OC(c2ccc(O)cc2)C(O)C3)C(O)C1O (stereo not given)" recorded_measurement=inactive

Lab note: need activity, negative = inhibition for C[C@@H]1O[C@@H](O[C@H]2[C@H](O)[C@@H](O)[C@H](OC[C@H]3O[C@@H](OC(=O)[C@]45CCC(C)(C)C[C@H]4C4=CCC6[C@@]7(C)C[C@H](O)[C@H](O[C@@H]8O[C@H](CO)[C@@H](O)[C@H](O)[C@H]8O)[C@@](C)(C(=O)O)C7CC[C@@]6(C)[C@]4(C)CC5)[C@H](O[C@@H]4O[C@H](CO)[C@@H](O)[C@H](O)[C@H]4O)[C@@H](O)[C@@H]3O)O[C@@H]2CO)[C@H](O)[C@H](O)[C@H]1O (stereo not given in full) on Nanoluciferase (engineered Oplophorus gracilirostris luciferase), anyone have it?
4.14% [at 11.6 µM] (inactive)

----------
Test system: HACAT
protocol text: qHTS assay to identify novel small-molecules to repurpose for Merkel cell carcinoma treatment (AID 1296009); also: nearly all actives have a fitted effect of over 60% in size
measurement setup: MCC and control cell lines, CellTiter-Glo viability, 72 h; at 44.8 µM (top of the series) unless noted
Inconclusive results are not listed. Calls of active or inactive are those of the source. The call rests on the fitted dose curve; in most records, active means well fitted inhibition curve with a large enough effect; inconclusive means small, poorly fitted or top-dose-only effect; inactive means flat fitted curve, though single readings scatter.
metric name: outcome

Completed entries (count: 4):
compound=CCc1cc2c(=O)c(-c3nc4ccccc4s3)coc2c(CN2CCCCC2)c1O metric_name=outcome recorded_measurement="inactive [at 17.4 µM]"
compound=CCCCS(=O)(=O)Nc1ncnc(OCCOc2ncc(Br)cn2)c1-c1ccc(Br)cc1 metric_name=outcome recorded_measurement=inactive
compound=COC(=O)C1=CO[C@@H](O[C@@H]2O[C@H](COC(=O)/C=C/c3cc(OC)c(O)c(OC)c3)[C@@H](O)[C@H](O)[C@H]2O)[C@@H]2C(CO)=CC[C@H]12 metric_name=outcome recorded_measurement="inactive [at 17.4 µM]"
compound=CC(C)C(=O)O[C@@H]1[C@@H](O)[C@@H](O[C@H]2O[C@H](CO)[C@@H](O)[C@H](O)[C@H]2O)O[C@H](CO)[C@H]1O metric_name=outcome recorded_measurement="inactive [at 17.4 µM]"

Need outcome, item CCc1c(CC(N)=O)c2cc(OCCCP(=O)(O)O)ccc2n1Cc1ccccc1
inactive

What about Cc1c(N2C(=O)c3ccc(C(=O)O)cc3C2=O)c(=O)n(-c2ccccc2)n1C ?
inactive

Try CC1CCC2(O1)C(C)(C)CC(O[C@@H]1O[C@H](CO[C@@H]3OC[C@](O)(CO)[C@H]3O)[C@@H](O)[C@H](O)[C@H]1O)CC2(C)O (some centres undefined) next.
inactive [at 17.4 µM]

And the next one, CCOC(=O)[C@H]1O[C@@H]1C(=O)N[C@@H](CC(C)C)C(=O)NCCC(C)C ?
inactive

----------
protocol text: Drug repurposing screens with cells derived from glioblastoma tumor samples (AID 1345199); also: % is scaled to controls: 0 for no effect and ±100 for the full control effect; nearly all actives have a fitted effect of over 40% in size
measurement setup: GBM patient neurospheres viability, ATP luminescence, 48 h; at 21.2 µM (top of the series); tumour line D
Results filed as inconclusive are left out.
metric name: activity, negative = cell killing (%)
Enter your answer as a number in %; do not include the unit.

Name the reported activity, negative = cell killing value associated with the molecule CC(Oc1ccccc1)C(=O)N[C@@H]1C(=O)N2[C@@H]1SC(C)(C)[C@@H]2C(=O)O (stereo partly specified)
-2.95

Param item: CC(=O)N(CC(C)C(=O)O)c1c(I)cc(I)c(N)c1I (stereo unspecified)
-13.7

Next molecule up: NCc1ccccc1CC(=O)N[C@@H]1C(=O)N2C(C(=O)O)=C(CSc3nnnn3CC(=O)O)CS[C@H]12
-30

Ok, now CO[C@H]1C[C@H](O[C@H]2[C@H](C)[C@@H](O[C@@H]3O[C@H](C)C[C@H](N(C)C)[C@H]3OC(C)=O)[C@@H](C)C[C@]3(CO3)C(=O)[C@H](C)[C@@H](OC(C)=O)[C@@H](C)[C@@H](C)OC(=O)[C@@H]2C)O[C@@H](C)[C@@H]1OC(C)=O
-16.6

Query CC[C@H]1OC(=O)[C@H](C)[C@@H](O[C@H]2C[C@@](C)(OC)[C@@H](O)[C@H](C)O2)[C@H](C)[C@@H](O[C@@H]2O[C@H](C)C[C@H](N(C)C)[C@H]2O)[C@](C)(O)C[C@@H](C)/C(=N\OCOCCOC)[C@H](C)[C@@H](O)[C@]1(C)O next
-24

Try this molecule next: CC[N+](C)(C)Cc1ccccc1Br
-1.19

----------
protocol text: qHTS Assay for Lipid Storage Modulators (AID 1519)
measurement setup: Drosophila S3 cells, BODIPY lipid droplet/cell ratio, laser cytometry; measured here: cell count channel max response; cells loaded with oleic acid
Inconclusive results are not listed.
metric name: max response (%)
Supply the numeric figure in %, leaving out any unit text.

Query (molecule): OCc1ccccc1O[C@@H]1O[C@H](CO)[C@@H](O)[C@H](O)[C@H]1O ; field requested: max response
-14.9

Moving on to NC(=O)c1ncn(C2OC(CO)C(O)C2O)n1 (configuration not stated)
6.51

Entry CCCC(=O)Nc1ncnc2c1ncn2[C@@H]1O[C@@H]2COP(=O)(O)O[C@H]2[C@H]1OC(=O)CCC please
-7.18

Another molecule to check: Cc1cc(C(=O)NNCc2ccccc2)no1
-16.5

Also need CC1=C(/C=C/C(C)=C/C=C/C(C)=C/C=C/C=C(C)/C=C/C=C(C)/C=C/C2=C(C)CCCC2(C)C)C(C)(C)CCC1 , thanks.
15.1

Entry Cc1cn([C@H]2C[C@H](O)[C@@H](CO)O2)c(=O)[nH]c1=O please
-24

Moving on to the next molecule: Oc1cc(O)c2c(c1)OC(c1ccc(O)c(O)c1)C(O)C2 (configuration not stated)
2.83

Entry to check: CN1Cc2c(N)cccc2C(c2ccccc2)C1 (configuration not stated)
11.3

Moving on to CC1(C)S[C@@H]2[C@H](NC(=O)[C@@H](NC(=O)N3CCNC3=O)c3ccccc3)C(=O)N2[C@H]1C(=O)O
-12.9

And for CCN(CC)Cc1cc(Nc2ccnc3cc(Cl)ccc23)ccc1O ?
-18.5

Here is the next molecule: O=C(O)CN(CCN(CC(=O)O)CC(=O)O)CC(=O)O
-1.95

Same thing, different molecule: CC1(C)S[C@@H]2[C@H](NC(=O)Cc3ccccc3)C(=O)N2[C@H]1C(=O)O
2.65

----------
Consider the following compounds; for each one, report its activity, negative = cell killing.
protocol text: Drug repurposing screens with cells derived from glioblastoma tumor samples (AID 1345199); also: % is scaled to controls: 0 for no effect and ±100 for the full control effect; nearly all actives have a fitted effect of over 40% in size
measurement setup: GBM patient neurospheres viability, ATP luminescence, 48 h; at 20 µM (top of the series); tumour line C
Records with an inconclusive call do not appear.
Unit % implied. Number only.

Suppose we examine the compound CNC(C)[C@@H]1CC[C@@H](N)[C@@H](O[C@H]2[C@H](O)[C@@H](O[C@H]3OC[C@](C)(O)[C@H](NC)[C@H]3O)[C@H](N)C[C@@H]2N)O1 (stereo not given in full) ; what activity, negative = cell killing value has been reported?
-7.4

Likewise for CC1(C)S[C@@H]2[C@H](NC(=O)C(N)c3ccccc3)C(=O)N2[C@H]1C(=O)OC1OC(=O)c2ccccc21 (stereo not given in full) ?
-5.29

Same question, CCC(=O)OCC(=O)[C@@]1(OC(=O)CC)[C@H](C)C[C@H]2[C@H]3[C@H]([C@@H](O)C[C@@]21C)[C@@]1(C)C=CC(=O)C=C1C[C@H]3Cl this time
-8.97

Item: C[C@H](CCC(=O)O)[C@H]1CC[C@H]2[C@@H]3[C@H](O)C[C@@H]4C[C@H](O)CC[C@]4(C)[C@H]3CC[C@]12C
0.416

Also CC(Oc1ccccc1)C(=O)N[C@@H]1C(=O)N2[C@@H]1SC(C)(C)[C@@H]2C(=O)O (stereo not given in full) , if possible.
1.64

----------
protocol text: P-glycoprotein substrates identified in KB-8-5-11 adenocarcinoma cell line, qHTS therapeutic library screen (AID 1346987); also: % is scaled to controls: 0 for no effect and ±100 for the full control effect; nearly all actives have a fitted effect of over 65% in size
measurement setup: KB-8-5-11 (P-gp overexpressing) viability, CellTiter-Glo, 72 h; series mostly up to 44.5 µM
Results filed as inconclusive are left out. Calls of active or inactive are those of the source. Calls follow the shape of the dose curve; as a rule, active = well fitted inhibition curve with a large enough effect; inconclusive = small, poorly fitted or top-dose-only effect; inactive = flat fitted curve, though single readings scatter.
metric name: activity change, negative = cytotoxicity

Take a look at these entries with their results.
compound=CCCCCCCCCCCCCCCC(=O)OCC(COC(=O)CCCCCCCCCCCCCCC)OC(=O)CCCCCCCCCCCCCCC recorded_measurement=inactive
compound="CC1CCC2C(C)(C)C(O)CCC2(C)C12Cc1c(O)cc3c(c1O2)CN=C3N (stereo unspecified)" recorded_measurement=inactive
compound="C=C[C@@]1(C)CC(=O)C2[C@](C)(O1)[C@@H](OC(C)=O)[C@@H](O)[C@H]1C(C)(C)CCC[C@]21C (stereo partly specified)" recorded_measurement="9.24% [at 9.29 µM] (inactive)"
compound="CC(=O)OC[C@@]12[C@H](O)C[C@]3(C)C(=CCC4[C@@]5(C)CC[C@H](O[C@@H]6O[C@H](C(=O)O)[C@@H](O[C@@H]7O[C@H](CO)[C@@H](O)[C@H](O)[C@H]7O)[C@H](O)[C@H]6O[C@@H]6O[C@H](CO)[C@@H](O)[C@H](O)[C@H]6O)[C@](C)(CO)C5CC[C@]43C)[C@@H]1CC(C)(C)[C@@H](OC(C)=O)[C@@H]2O (stereo partly specified)" recorded_measurement="4.33% [at 9.29 µM] (inactive)"
compound="CC(C)=CCCC1(C)Oc2cc3c(c4c2C2C(O4)C(C)(O)CCC21)CN(C(CCC(=O)O)C(=O)O)C3=O (stereo unspecified)" recorded_measurement=inactive

Requested read-out: activity change, negative = cytotoxicity. Entry: CCCC(=O)O[C@]1(C(=O)COC(C)=O)CC[C@H]2[C@@H]3C[C@H](F)C4=CC(=O)C=C[C@]4(C)[C@@]3(F)[C@@H](O)C[C@@]21C
inactive
